// MIC lookup, one value per entry
Test system: E. coli
Test: Gram negative MIC protocol (OD600, LB, 24 h)
Conditions: Escherichia coli, read-out: MIC E. coli delta-TolC LB Media, E. coli delta-TolC, LB media, OD600
Structures can show the parent of a compound that is named as a salt.

Worked set:
{"columns": ["molecule", "MIC"],
 "data": [
  ["c1ccc(CNCCC23CCCCC2C3)cc1 (stereo not drawn) [B182]", "> 300 µM"],
  ["CC1CCCCC1CCNCc1ccccc1 (stereo not drawn) [B178]", "> 300 µM"],
  ["c1ccc(CNCCc2ccc3ccccc3c2)cc1 [B133]", "> 150 µM"],
  ["c1ccc(CNC(CC2CCCCC2)C2CC2)cc1 (stereo not drawn) [B167]", "> 300 µM"],
  ["CNc1cccc(CNCCC2CCCCC2)c1 [B406]", "> 150 µM"]
]}

Task item: Give me measured MIC, please, for this molecule: CCC(CC1CCCCC1)NCc1ccccc1F (stereo not drawn) [B166, hydrochloride]
Reply: 250 µM

###

System: E. coli
Assay: Gram negative MIC protocol (OD600, LB, 24 h)
Conditions: Escherichia coli, read-out: MIC E. coli delta-TolC LB Media, E. coli delta-TolC, LB media, OD600
// MIC lookup, one value per entry

Worked set:
{"columns": ["molecule", "MIC"],
 "data": [
  ["c1ccc(CNCCc2ccc3[nH]ncc3c2)cc1", "> 150 µM"],
  ["O=C1Cc2ccccc2CN1CCCC1CCCCC1", "55 µM"],
  ["CC(CNCc1ccccc1)C1CCCCC1 (stereo not drawn)", "150 µM"],
  ["c1ccc(CCNCc2ccccc2)cc1", "> 300 µM"]
]}

Alright, here's another molecule for you.
Task item: Give me measured MIC, please, for this molecule: `O=C1Cc2ccccc2CN1CCC1CCCC1`
Reply: > 150 µM

###

System: E. coli
Assay: Gram negative MIC protocol (OD600, LB, 24 h)
Conditions: Escherichia coli, read-out: MIC WT E. coli LB Media, wild-type E. coli, LB media, 24 h, OD600
Where a name gives a salt, the structure may show the parent alone.
value-type: MIC

Worked set:
{"columns": ["compound", "endpoint-value"],
 "data": [
  ["NCc1ccccc1CNCCC1CCCCC1 [B254, hydrochloride]", "> 150 µM"],
  ["CCC1CCCCC1Oc1ccccc1CNC(C)CC1CCCCC1 (stereo not shown)", "> 150 µM"],
  ["COC(=O)c1cc(COc2ccccc2CNC(C)CC2CCCCC2)oc1C (stereo not shown)", "> 150 µM"]
]}

Task item: Give me measured MIC, please, for this compound: CC(CC1CCCCC1)NCc1ccccc1OCCOCC1CC1 (stereo not shown)
Reply: > 150 µM

Task item: Give me measured MIC, please, for this compound: CCN1CC(COc2ccccc2CNC(C)CC2CCCCC2)OC1=O (stereo not shown)
Reply: > 150 µM

Task item: Give me measured MIC, please, for this compound: FC(F)(F)c1ccccc1CNCCC1CCCCC1 [B225, hydrochloride]
Reply: > 300 µM

Task item: Give me measured MIC, please, for this compound: CC(CC1CCCCC1)NCc1ccccc1OC1CC2CC1C1CCCC21 (stereo not shown)
Reply: > 150 µM

Task item: Give me measured MIC, please, for this compound: CC(CC1CCCCC1)NCc1ccccc1OCc1ncnn1C (stereo not shown)
Reply: > 150 µM

Task item: Give me measured MIC, please, for this compound: COc1ccc2c(c1)[C@@H](NCc1ccccc1)CC2 [B209, hydrochloride]
Reply: > 300 µM

Task item: Give me measured MIC, please, for this compound: CN(C)c1ccccc1CNCCC1CCCCC1 [B237, hydrochloride]
Reply: > 300 µM
